Where do the numbers come from? From the RNAGym collection of RNA variant scans (doi:10.7554/elife.90254).

B1: OR4K15 (parent)
chain: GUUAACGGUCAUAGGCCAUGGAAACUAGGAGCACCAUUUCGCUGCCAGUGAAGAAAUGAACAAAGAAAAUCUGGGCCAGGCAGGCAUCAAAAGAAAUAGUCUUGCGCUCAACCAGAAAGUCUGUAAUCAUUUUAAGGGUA

# Variants of: B1
# method.summary: self-cleavage, relative activity (ratio to wild type); higher = more cleavage; in vitro, sequencing; the parent is a self-cleaving ribozyme
Definition: the class of an entry is the range in bottom range: < 0.6; center range: ≥ 0.6 and < 1; top range: ≥ 1 that contains its self-cleavage.

Solved entries (count: 3):
A63G A118G : center range
C101U U108C : bottom range
A51U G74U : bottom range

(Q) Each variant maps to one class by self-cleavage. Which class for U26A A27G ?
(A) center range

(Q) Each variant maps to one class by self-cleavage. Which class for U87C A116U ?
(A) bottom range

(Q) Each variant maps to one class by self-cleavage. Which class for A68U U120C ?
(A) top range

(Q) Each variant maps to one class by self-cleavage. Which class for U87A A90G ?
(A) top range

(Q) Each variant maps to one class by self-cleavage. Which class for U49C G137A ?
(A) top range

(Q) Each variant maps to one class by self-cleavage. Which class for A52G U133A ?
(A) top range

(Q) Each variant maps to one class by self-cleavage. Which class for U43A A96U ?
(A) top range

(Q) Each variant maps to one class by self-cleavage. Which class for U122C ?
(A) center range

(Q) Each variant maps to one class by self-cleavage. Which class for G44A A82U ?
(A) bottom range

(Q) Each variant maps to one class by self-cleavage. Which class for A62C A125G ?
(A) bottom range

(Q) Each variant maps to one class by self-cleavage. Which class for A52G G138U ?
(A) top range

(Q) Each variant maps to one class by self-cleavage. Which class for A66G G73A ?
(A) bottom range

(Q) Each variant maps to one class by self-cleavage. Which class for A64G A96G ?
(A) top range

(Q) Each variant maps to one class by self-cleavage. Which class for A5G A54U ?
(A) center range

(Q) Each variant maps to one class by self-cleavage. Which class for U57C A111U ?
(A) bottom range
